# systemName: ERα (Homo sapiens)
# Construct: host or cells: MCF-7
# Sequence (P03372 whole entry): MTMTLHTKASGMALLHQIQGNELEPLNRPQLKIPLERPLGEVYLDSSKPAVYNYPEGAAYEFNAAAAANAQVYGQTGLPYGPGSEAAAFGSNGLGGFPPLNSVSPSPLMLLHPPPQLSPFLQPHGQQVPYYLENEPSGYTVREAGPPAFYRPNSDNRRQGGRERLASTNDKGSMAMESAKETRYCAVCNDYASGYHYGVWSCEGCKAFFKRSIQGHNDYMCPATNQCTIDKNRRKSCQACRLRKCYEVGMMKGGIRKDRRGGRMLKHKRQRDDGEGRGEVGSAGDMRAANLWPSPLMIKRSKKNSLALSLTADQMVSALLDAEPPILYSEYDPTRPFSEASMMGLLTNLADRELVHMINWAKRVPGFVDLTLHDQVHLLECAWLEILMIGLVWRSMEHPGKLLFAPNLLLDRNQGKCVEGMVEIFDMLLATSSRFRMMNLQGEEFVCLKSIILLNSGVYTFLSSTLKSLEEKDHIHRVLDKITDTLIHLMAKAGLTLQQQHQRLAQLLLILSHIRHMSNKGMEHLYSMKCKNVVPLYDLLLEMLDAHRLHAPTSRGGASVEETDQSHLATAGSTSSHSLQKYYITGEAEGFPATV
# protocolNotes: ER degradation activity in MCF-7 cells (Western blot, grayscale intensity)
# Assay type: cell-based
# experimentalConditions: 6 hours treatment, 1 nM to 100 nM, concentration required to degrade 50% of the target protein
Would you kindly list DC50 for each of these molecules?

Report DC50 under test system ERα (Homo sapiens) for CC1(C)CC(=C(c2ccc(N3CCC(CN4CCN(c5cccc(NC6CCC(=O)NC6=O)c5)CC4)CC3)cc2)c2ccc3[nH]nc(F)c3c2)CC(C)(C)O1 (stereo not drawn) .
> 100 nM

Report DC50 under test system ERα (Homo sapiens) for CC1(C)CC(=C(c2ccc(N3CC4C(CN5CCN(c6ccc7c(c6)CN(C6CCC(=O)NC6=O)C7=O)CC5)C4C3)nc2)c2ccc3[nH]nc(F)c3c2)CC(C)(C)O1 (stereo not drawn) .
> 100 nM

Report DC50 under test system ERα (Homo sapiens) for "CC1(C)CC(=C(c2ccc(N3CCC(N4CCN(c5ccc6c(c5)CN([C@@H]5CCC(=O)NC5=O)C6=O)CC4)CC3)cc2)c2ccc3[nH]nc(F)c3c2)CC(C)(C)O1" .
10 to 100 nM

Report DC50 under test system ERα (Homo sapiens) for CC1(C)CC(=C(c2ccc(N3CCN(C4CN(c5ccc6c(c5)C(=O)N(C5CCC(=O)NC5=O)C6=O)C4)CC3)cc2)c2ccc3[nH]nc(F)c3c2)CC(C)(C)O1 (stereo not drawn) .
< 10 nM

Report DC50 under test system ERα (Homo sapiens) for "CC1(C)CC(=C(c2ccc(N3CCC4(CC3)CC(N3CCN(c5ccc(C(=O)N[C@H]6CCC(=O)NC6=O)cc5)CC3)C4)nc2)c2ccc3[nH]nc(F)c3c2)CC(C)(C)O1" .
< 10 nM

Report DC50 under test system ERα (Homo sapiens) for CC1(C)CC(=C(c2ccc(N3CCC(CN4CCN(c5ccc6c(c5)C(=O)N(C5CCC(=O)NC5=O)C6=O)CC4)CC3)cc2)c2ccc3[nH]nc(F)c3c2)CC(C)(C)O1 (stereo not drawn) .
< 10 nM

Report DC50 under test system ERα (Homo sapiens) for CC1(C)CC(=C(c2ccc(N3CCC(CN4CCN(c5ccc(NC6CCC(=O)NC6=O)c(F)c5)CC4)CC3)cc2)c2ccc3[nH]nc(F)c3c2)CC(C)(C)O1 (stereo not drawn) .
> 100 nM

Report DC50 under test system ERα (Homo sapiens) for CC1(C)CC(=C(c2ccc3[nH]nc(F)c3c2)c2c(F)cc(N3CCN(C4CCN(c5ccc6c(c5)C(=O)N(C5CCC(=O)NC5=O)C6=O)CC4)CC3)cc2F)CC(C)(C)O1 (stereo not drawn) .
> 100 nM

Report DC50 under test system ERα (Homo sapiens) for CC1(C)CC(=C(c2ccc(OC3CN(C4CN(c5ccc6c(c5)C(=O)N(C5CCC(=O)NC5=O)C6=O)C4)C3)nc2)c2ccc3[nH]nc(F)c3c2)CC(C)(C)O1 (stereo not drawn) .
> 100 nM

Report DC50 under test system ERα (Homo sapiens) for "CC1(C)CC(=C(c2ccc(N3CC4(CCN(C5CCN(c6ccc7c(c6)CN([C@@H]6CCC(=O)NC6=O)C7=O)CC5)CC4)C3)nc2)c2ccc3[nH]nc(F)c3c2)CC(C)(C)O1" .
< 10 nM

Report DC50 under test system ERα (Homo sapiens) for CC1(C)CC(=C(c2ccc(N3CCC(F)(CN4CCN(c5ccc6c(c5)CN(C5CCC(=O)NC5=O)C6=O)CC4)CC3)nc2)c2ccc3[nH]nc(F)c3c2)CC(C)(C)O1 (stereo not drawn) .
10 to 100 nM

Report DC50 under test system ERα (Homo sapiens) for CC1(C)CC(=C(c2ccc(N3CCC(CN4CCN(c5ccc(NC6CCC(=O)NC6=O)cc5)CC4)CC3)cc2)c2ccc3[nH]nc(F)c3c2)CC(C)(C)O1 (stereo not drawn) .
> 100 nM

Report DC50 under test system ERα (Homo sapiens) for CC1(C)CC(=C(c2ccc(N3CCC(CNC4CN(c5ccc6c(c5)CN(C5CCC(=O)NC5=O)C6=O)C4)CC3)nc2)c2ccc3[nH]nc(F)c3c2)CC(C)(C)O1 (stereo not drawn) .
< 10 nM

Report DC50 under test system ERα (Homo sapiens) for CC1(C)CC(=C(c2ccc3[nH]nc(F)c3c2)c2c(F)cc(OC3CN(C4CN(c5ccc6c(c5)C(=O)N(C5CCC(=O)NC5=O)C6=O)C4)C3)cc2F)CC(C)(C)O1 (stereo not drawn) .
> 100 nM

Report DC50 under test system ERα (Homo sapiens) for CC1(C)CC(=C(c2ccc(N3CCC(CN4CCN(c5ccc6c(c5)CN(C5CCC(=O)NC5=O)C6=O)CC4)CC3)nc2)c2cccc(O)c2)CC(C)(C)O1 (stereo not drawn) .
10 to 100 nM

Report DC50 under test system ERα (Homo sapiens) for "CC1(C)CC(=C(c2ccc(N3CCC(CN4CCN(c5ccc6c(c5)CN([C@H]5CCC(=O)NC5=O)C6=O)CC4)CC3)nc2)c2ccc3[nH]ncc3c2)CC(C)(C)O1" .
< 10 nM

Report DC50 under test system ERα (Homo sapiens) for "CC1(C)CC(=C(c2ccc(N3CCC(CN4CCN(c5ccc6c(c5)C(=O)N([C@H]5CCC(=O)NC5=O)C6=O)CC4)CC3)cc2)c2ccc3[nH]ncc3c2)CC(C)(C)O1" .
< 10 nM

Report DC50 under test system ERα (Homo sapiens) for Cn1c(=O)n(C2CCC(=O)NC2=O)c2cccc(C#CCN3CCN(c4ccc(C(=C5CC(C)(C)OC(C)(C)C5)c5ccc6[nH]nc(F)c6c5)cn4)CC3)c21 (stereo not drawn) .
> 100 nM

Report DC50 under test system ERα (Homo sapiens) for CC1(C)CC(=C(c2ccc(OC3CN(CC4CN(c5ccc6c(c5)C(=O)N(C5CCC(=O)NC5=O)C6=O)C4)C3)nc2)c2ccc3[nH]nc(F)c3c2)CC(C)(C)O1 (stereo not drawn) .
> 100 nM

Report DC50 under test system ERα (Homo sapiens) for CC1(C)CC(=C(c2ccc3[nH]nc(F)c3c2)c2c(F)cc(N3CCC(CN4CCN(c5ccc6c(c5)CN(C5CCC(=O)NC5=O)C6=O)CC4)CC3)cc2F)CC(C)(C)O1 (stereo not drawn) .
> 100 nM

Report DC50 under test system ERα (Homo sapiens) for "Cn1nc(N2CCC(=O)NC2=O)c2cc(F)c(N3CCN(CC4CCN(c5ccc(C(=C6CC(C)(C)OC(C)(C)C6)c6ccc7[nH]nc(F)c7c6)cn5)CC4)CC3)cc21" .
10 to 100 nM

Entry source: patent EP4722209A1
